assay-procedure: Cytotoxicity against mouse RAW264.7 cells assessed as inhibition of cell viability at 100 uM measured after 72 hrs by MTT assay relative to control
Type: toxicity
condition-details: read-out: INH
measured-parameter: cytotoxicity at 72 h, 100 µM (%)
Output spec: scalar in %, unitless text.

Lookup: Could you please provide reported cytotoxicity at 72 h, 100 µM for `COc1ccc2c(c1)C(=O)C(=O)N2CCN1CCN(NCc2ccccc2F)CC1` ? Thanks!
Found: 16.3

Lookup: Could you please provide reported cytotoxicity at 72 h, 100 µM for `O=C1C(=O)N(CCN2CCN(NCc3ccc([N+](=O)[O-])o3)CC2)c2ccccc21` ? Thanks!
Found: 30.6

Lookup: Could you please provide reported cytotoxicity at 72 h, 100 µM for `COc1ccccc1CNN1CCN(CCN2C(=O)C(=O)c3cc(F)ccc32)CC1` ? Thanks!
Found: 19.1
